Consider the following compounds and their measured normalized growth readings.
assay: chemical genetic growth profiling, strain panel (AID 1159580);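 note: tested at 20 µM; growth read once vehicle control cultures reached saturation at 30 °C; 1 = growth at the plate median or of vehicle wells; lower values mean less growth of the strain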; conditions: S. cerevisiae deletion strains, growth OD, locus YLR058C, strain SHM2, stronger effect = lower value
Screen size: about 5,500 compounds; about 2,000 (36%) were called active. Another 18% or so got no clear call; they are omitted. Some of the results follow.
Form: value (number only, do not type unit).

Consider the reported normalized growth for these compounds:
In [3]: df
Out[3]:
                                   compound    measured_metric  result_number
0                O=C(O)/C=C(\CC(=O)O)C(=O)O  normalized growth           1.01
1  CC(=O)Oc1cc(OC(C)=O)c2c(=O)c(-c3ccccc3)coc2c1  normalized growth           1.01

Proceeding to the next compound to report its normalized growth.
The compound COCCOC(=O)C1=C(C)NC(C)=C(C(=O)OC(C)C)C1c1cccc([N+](=O)[O-])c1 (configuration not stated) showed normalized growth equal to 1
